pIC50: −log10 of the molar value. Starred links: 1 amine or outer side, 2 acyl side, 3 side chain; linkers in the order of their positions; H or OH if unused. Positions of bridges follow the written chain, without caps; N, C: chain ends. Non-standard residues stand in square brackets, D forms with d. Residues, ends and D or L forms follow the SMILES beside them. Chains are numbered I, II in the order given. Actinocin(9to1) = Cc1c2oc3c(C)ccc(C(=O)[*:1])c3nc-2c(C(=O)[*:2])c(N)c1=O; NMeV = CN[C@H](C(=O)O)C(C)C; Sar = CNCC(=O)O
The next entries give measured pIC50 for UniProt P06746.
measure: pIC50

1. Cc1c2oc3c(C)ccc(C(=O)N[C@@H]4C(=O)N[C@H](C(C)C)C(=O)N5CCC[C@H]5C(=O)N(C)CC(=O)N(C)[C@@H](C(C)C)C(=O)O[C@@H]4C)c3nc-2c(C(=O)N[C@@H]2C(=O)N[C@H](C(C)C)C(=O)N3CCC[C@H]3C(=O)N(C)CC(=O)N(C)[C@@H](C(C)C)C(=O)O[C@@H]2C)c(N)c1=O [Act. D, actinomycin D] (I: T[dV]P[Sar][NMeV] / II: T[dV]P[Sar][NMeV]; ester I:1-I:C, II:1-II:C; linker I:N-II:N via Actinocin(9to1)): 5.10
2. Nc1ccn([C@H]2CC[C@@H](COP(=O)(O)OP(=O)(O)OP(=O)(O)O)O2)c(=O)n1: 5.32

###

The next entries give measured CC50 for Vero 76, African green monkey kidney cells.
measure: CC50

1. C#C[C@@]1(O)[C@H](O)[C@@H](CO)O[C@H]1n1cnc2c(N)ncnc21: 60 µM
2. C[C@@]1(O)[C@H](O)[C@@H](CO)O[C@H]1n1cnc2c(N)nc(N)nc21: > 100 µM
3. C[C@@]1(O)[C@H](O)[C@@H](CO)O[C@H]1n1cnc2c(=O)[nH]c(N)nc21: > 100 µM
4. Nc1nc(N)c2ncn([C@@H]3O[C@H](CO)[C@@H](O)[C@H]3O)c2n1: > 100 µM
5. C#C[C@@]1(O)[C@H](O)[C@@H](CO)O[C@H]1n1ccc(N)nc1=O: > 100 µM
6. C[C@@]1(O)[C@H](O)[C@@H](CO)O[C@H]1n1cnc2c(N)ncnc21: 80 µM
7. CC(C)[C@H](N)C(=O)OC[C@H]1O[C@@H](n2cnc3c(=O)[nH]c(N)nc32)[C@](C)(O)[C@@H]1OC(=O)[C@@H](N)C(C)C: > 100 µM
8. C[C@@]1(O)[C@H](O)[C@@H](CO)O[C@H]1n1cnc2c(Cl)nc(N)nc21: > 100 µM

###

Known pIC50 of a selection of compounds
# targetUnderTest: human DNA polymerase γ (Homo sapiens, UniProt P54098)
# Sequence (P54098 whole entry): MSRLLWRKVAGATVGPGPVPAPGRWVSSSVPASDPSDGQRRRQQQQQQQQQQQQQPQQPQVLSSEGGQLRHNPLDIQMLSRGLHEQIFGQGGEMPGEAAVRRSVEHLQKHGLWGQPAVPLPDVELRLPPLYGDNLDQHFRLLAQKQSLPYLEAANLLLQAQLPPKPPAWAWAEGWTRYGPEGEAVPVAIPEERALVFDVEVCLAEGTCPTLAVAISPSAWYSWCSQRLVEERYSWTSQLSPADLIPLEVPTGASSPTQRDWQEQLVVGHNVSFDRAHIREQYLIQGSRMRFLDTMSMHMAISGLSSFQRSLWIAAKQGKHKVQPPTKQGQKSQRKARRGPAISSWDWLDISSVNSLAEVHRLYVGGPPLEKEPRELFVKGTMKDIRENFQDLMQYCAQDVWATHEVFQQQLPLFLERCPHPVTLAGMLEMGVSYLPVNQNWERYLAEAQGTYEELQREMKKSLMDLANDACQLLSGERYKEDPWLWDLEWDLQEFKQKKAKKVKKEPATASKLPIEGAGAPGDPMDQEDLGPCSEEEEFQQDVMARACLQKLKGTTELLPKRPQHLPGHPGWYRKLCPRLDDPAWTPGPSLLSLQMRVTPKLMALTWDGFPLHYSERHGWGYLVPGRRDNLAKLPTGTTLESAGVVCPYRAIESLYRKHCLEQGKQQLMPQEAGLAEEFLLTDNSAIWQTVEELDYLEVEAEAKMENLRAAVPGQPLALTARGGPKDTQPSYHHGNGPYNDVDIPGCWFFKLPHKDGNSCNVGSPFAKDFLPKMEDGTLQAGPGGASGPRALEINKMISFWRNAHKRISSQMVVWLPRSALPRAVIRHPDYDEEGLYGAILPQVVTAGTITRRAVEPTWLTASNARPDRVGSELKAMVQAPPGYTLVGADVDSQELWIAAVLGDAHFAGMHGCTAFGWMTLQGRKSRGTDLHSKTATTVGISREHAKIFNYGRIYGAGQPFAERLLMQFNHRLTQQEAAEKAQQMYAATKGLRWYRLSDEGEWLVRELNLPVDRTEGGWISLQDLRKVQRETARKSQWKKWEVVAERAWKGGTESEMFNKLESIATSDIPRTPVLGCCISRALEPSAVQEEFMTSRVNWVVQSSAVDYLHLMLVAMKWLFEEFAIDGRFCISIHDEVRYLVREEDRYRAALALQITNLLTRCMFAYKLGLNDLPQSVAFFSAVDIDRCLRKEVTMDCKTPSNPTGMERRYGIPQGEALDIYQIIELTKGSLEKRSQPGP
pIC50: −log10 of the molar value. Starred links: 1 amine or outer side, 2 acyl side, 3 side chain; linkers in the order of their positions; H or OH if unused. Positions of bridges follow the written chain, without caps; N, C: chain ends. Non-standard residues stand in square brackets, D forms with d. Residues, ends and D or L forms follow the SMILES beside them. Chains are numbered I, II in the order given. Actinocin(9to1) = Cc1c2oc3c(C)ccc(C(=O)[*:1])c3nc-2c(C(=O)[*:2])c(N)c1=O; NMeV = CN[C@H](C(=O)O)C(C)C; Sar = CNCC(=O)O
measure: pIC50

1) Cc1c2oc3c(C)ccc(C(=O)N[C@@H]4C(=O)N[C@H](C(C)C)C(=O)N5CCC[C@H]5C(=O)N(C)CC(=O)N(C)[C@@H](C(C)C)C(=O)O[C@@H]4C)c3nc-2c(C(=O)N[C@@H]2C(=O)N[C@H](C(C)C)C(=O)N3CCC[C@H]3C(=O)N(C)CC(=O)N(C)[C@@H](C(C)C)C(=O)O[C@@H]2C)c(N)c1=O [Act. D, actinomycin D] (I: T[dV]P[Sar][NMeV] / II: T[dV]P[Sar][NMeV]; ester I:1-I:C, II:1-II:C; linker I:N-II:N via Actinocin(9to1)): 4.81
2) Nc1ccn([C@H]2CC[C@@H](COP(=O)(O)OP(=O)(O)OP(=O)(O)O)O2)c(=O)n1 [ddC-TP]: 5.57

###

# Tested on: MA-104, Rhesus monkey kidney cells
# methodNotes: Cytotoxicity, MA-104
# conditionsUsed: Parainfluenza type 3 line
measure: CC50

1) CC1(O)C(O)C(CO)OC1n1ccc(N)nc1=O (stereo not shown): > 200 µM

###

The next entries give measured CC50 for MT-4 human T-lymphocyte cells.
measure: CC50

1. C[C@@]1(O)[C@H](O)[C@@H](CO)O[C@H]1n1ccc(=O)[nH]c1=O: > 100 µM
2. C#C[C@@]1(O)[C@H](O)[C@@H](CO)O[C@H]1n1cnc2c(N)ncnc21: 4.6 µM
3. C#C[C@@]1(O)[C@H](O)[C@@H](CO)O[C@H]1n1ccc(N)nc1=O: ≥ 100 µM
4. CC(C(=O)c1ccccc1)n1c(N)nc2c(ncn2[C@@H]2O[C@H](CO)[C@@H](O)[C@@]2(C)O)c1=O (some centres unmarked): > 100 µM
5. C[C@@]1(O)[C@H](O)[C@@H](CO)O[C@H]1n1cnc2c(=O)[nH]c(N)nc21: > 100 µM
6. C[C@@]1(O)[C@H](O)[C@@H](CO)O[C@H]1n1cnc2c(N)nc(N)nc21: > 100 µM
7. C[C@@]1(O)[C@H](O)[C@@H](CO)O[C@H]1n1cnc2c(N)ncnc21: 4 µM
8. C[C@@]1(O)[C@H](O)[C@@H](CO)O[C@H]1n1cnc2c(NC3CC3)nc(N)nc21: > 100 µM
9. Nc1nc(N)c2ncn([C@@H]3O[C@H](CO)[C@@H](O)[C@H]3O)c2n1: 50 µM
10. CC(C)[C@H](N)C(=O)OC[C@H]1O[C@@H](n2cnc3c(=O)[nH]c(N)nc32)[C@](C)(O)[C@@H]1OC(=O)[C@@H](N)C(C)C: > 100 µM
11. C[C@@]1(O)[C@H](O)[C@@H](CO)O[C@H]1n1cnc2c(Cl)nc(N)nc21: > 100 µM

###

# System: MDCK, canine kidney cells
# methodNotes: Cytotoxicity, MDCK
# Format: cell-based
# conditionsUsed: Influenza A/H1N1 line
measure: CC50

1. CC1(O)C(O)C(CO)OC1n1ccc(N)nc1=O (stereo not shown) [mCyd]: > 200 µM

###

# Test system: DENV 2
# methodNotes: microbe, parasite or virus in culture
# Type: cell-based, dengue virus
# conditionsUsed: read-out: DENV 2
pEC50: −log10 of the molar value.
measure: pEC50

1) CC(C)[C@H](N)C(=O)OC[C@H]1O[C@@H](n2cnc3c(=O)[nH]c(N)nc32)[C@](C)(O)[C@@H]1OC(=O)[C@@H](N)C(C)C: 5.85
2) C[C@@]1(O)[C@H](O)[C@@H](CO)O[C@H]1n1cnc2c(N)ncnc21: 5.57
3) C#C[C@@]1(O)[C@H](O)[C@@H](CO)O[C@H]1n1cnc2c(N)ncnc21: 5.96
4) C[C@@]1(O)[C@H](O)[C@@H](CO)O[C@H]1n1cnc2c(Cl)nc(N)nc21: 6.15
5) C[C@@]1(O)[C@H](O)[C@@H](CO)O[C@H]1n1cnc2c(=O)[nH]c(N)nc21: 5.85
6) C[C@@]1(O)[C@H](O)[C@@H](CO)O[C@H]1n1cnc2c(NC3CC3)nc(N)nc21: 5.31
7) CC(C(=O)c1ccccc1)n1c(N)nc2c(ncn2[C@@H]2O[C@H](CO)[C@@H](O)[C@@]2(C)O)c1=O (stereo partly drawn): 5.36
8) C[C@@]1(O)[C@H](O)[C@@H](CO)O[C@H]1n1cnc2c(N)nc(N)nc21: 6.15

###

# methodNotes: in vitro
# conditionsUsed: human
measure: CC50

1. CC(C)C(N)C(=O)OC1[C@@H](CO)O[C@@H](n2ccc(N)nc2=O)[C@@]1(C)O (stereo partly shown): 24 µM

###

# Test system: LLC-MK2, Rhesus monkey kidney cells
# conditionsUsed: Punta Toro A line
measure: CC50

1) CC1(O)C(O)C(CO)OC1n1ccc(N)nc1=O (stereo not shown): > 200 µM

###

# Test system: HepG2 cells
# methodNotes: Cellular DNA synthesis, [3H]-thymidine incorporation
# conditionsUsed: read-out: CC50 DNA ([3H]Thymidine); 50% reduction of thymidine incorporation into cellular DNA
measure: CC50 (µM)

1. CC1(O)C(O)C(CO)OC1n1ccc(N)nc1=O (stereo not shown): 112

###

# System: MDCK, canine kidney cells
# methodNotes: Cytotoxicity, MDCK
# Assay type: cell-based
# conditionsUsed: Influenza B line
measure: CC50

1. CC1(O)C(O)C(CO)OC1n1ccc(N)nc1=O (stereo not shown) [mCyd]: 55 to 140 µM
